Cited source: PubChem BioAssay

experiment: endothelial E-selectin expression blockers – imaging, HUVEC, immunofluorescence, MLSMR starter and 10KST1 sets, primary screen (AID 487); details: HUVEC TNFalpha-induced E-selectin immunofluorescence imaging, at 2 µM; measured here: cell number, toxicity;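 further: 100% = median nuclei count of all wells on the same plate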
Recorded Endpoint: nuclei count (%)
Please reply with the bare figure in % and do not write the unit itself.

## Input Reported nuclei count, molecule COCCn1c(-c2ccc(OC)c(OC)c2)nc2ccccc21 : ____
## Output 77.6

## Input Given O=C1CCCc2c1cc(C(=O)NCc1ccco1)c(=O)n2-c1ccc(Cl)cc1 , state its recorded nuclei count.
## Output 80

## Input What value of nuclei count has been reported for the following molecule? COC(=O)CCN1CCC(C(N)=O)CC1
## Output 129

## Input I would be grateful if you could share the reported nuclei count for Cn1c(CCCNC(=O)c2ccccc2)nc2ccccc21 .
## Output 131

## Input What nuclei count value was documented for this molecule, Cc1cc(C)c2c(n1)sc1c(N3CCOCC3)ncnc12 ?
## Output 121

## Input // query nuclei count value for entry CN(Cc1nc(-c2ccncc2)no1)S(=O)(=O)c1ccc(Br)cc1
## Output 194

## Input nuclei count for Cc1ccc(SCCNS(=O)(=O)c2ccc(F)cc2)cc1 ?
## Output 122

## Input Query (molecule): Cc1[nH]c(=O)[nH]c(=O)c1S(=O)(=O)N1CCN(c2cccc(Cl)c2)CC1 ; field requested: nuclei count
## Output 126

## Input Name the reported nuclei count value associated with the molecule COc1cc(-c2noc(-c3cccc(Cl)c3)n2)cc(OC)c1OC
## Output 113

## Input # lookup: nuclei count of COc1cc(C(=O)NCC(=O)n2nc(C)cc2C)cc(OC)c1OC
## Output 141

## Input So what's the measured nuclei count for this one? COC(=O)c1ccc(CSc2nc3ccccc3c(=O)n2Cc2ccco2)o1
## Output 114

## Input Requested read-out: nuclei count. Entry: COc1cccc(-c2noc(CCC(=O)NC3CCCCC3)n2)c1
## Output 108

## Input # lookup: nuclei count of CS(=O)(=O)N1CCN(CC2CC3C=CC2C3)CC1 (stereo not drawn)
## Output 123

## Input Entry O=C(Cc1c(O)c2ccccc2[nH]c1=O)NCc1ccc(F)cc1 : reported nuclei count = ?
## Output 115

## Input Using the record for CCOC(=O)c1sc(NC(=O)CSc2nnc(-c3ccco3)n2CC)c(C(=O)OCC)c1C , report its nuclei count.
## Output 92.7

## Input Find the recorded nuclei count belonging to CN(C)c1cccc(N=C2C=C(N3CCOCC3)CC(C)(C)C2)c1 and report it.
## Output 116

## Input Reported nuclei count, molecule CCOc1ccc(NC(=O)CN(C)S(=O)(=O)c2cccs2)cc1 : ____
## Output 113

## Input Looking for the measured nuclei count of Cn1nc(-c2ccc(C(=O)N3CCN(c4ccccc4)CC3)cc2)c2ccccc2c1=O , can you help?
## Output 110

## Input What nuclei count value was documented for this molecule, CC(Oc1ccc2oc(-c3ccccc3)c(C(=O)O)c2c1)C(=O)O (stereo not drawn) ?
## Output 89.9

## Input Can you share its nuclei count? I mean this molecule: CCOc1ccc(N(C)S(=O)(=O)c2ccc3[nH]cc(C(=O)NCC4CCCO4)c(=O)c3c2)cc1 (stereo not drawn)
## Output 96.5

## Input Given the entry CCc1ccc(NC(=O)c2cc(-c3ccco3)on2)cc1 , report its measured nuclei count.
## Output 93.1

## Input So what's the measured nuclei count for this one? O=C(CN1C(=O)COc2ccccc21)NCCCN1CCc2ccccc2C1
## Output 106

## Input Can you look up the measured nuclei count of COc1ccc2c(c1)c(CC(=O)O)c(C)n2C(=O)c1ccc(Cl)cc1 for me?
## Output 122
